Test system: cytochrome P450
TEST_METHOD_NOTES: Inactivation of cytochrome P450 in rat liver microsomes assessed as inhibition of aminopyrine demethylation at 1 mM measured without preincubation by Nash reagent based colorimetry (reference value: 0%)
Assay type: ADME
CONDITION: probe aminopyrine
VALUE_KIND: inhibition at 1000 µM
Number first, unit second: that is the form wanted.

{"LINE_NOTATION": "c1ccc(CNC2CC2)cc1", "inhibition at 1000 µM": "29%"}
{"LINE_NOTATION": "CC(C)NCc1ccccc1", "inhibition at 1000 µM": "9%"}

For the next question, use this compound.
Query :: Record lookup: for cytochrome P450, what inhibition at 1000 µM belongs to c1ccc(CN2CCOCC2)cc1 ?
Result :: 27%
